- system under test: T1, human CD33 antigen (human, UniProt P20138 18-259, limits assumed)
- T1 construct: whole entry named; also called Siglec-3
- T1 sequence (P20138 18-259 limits assumed): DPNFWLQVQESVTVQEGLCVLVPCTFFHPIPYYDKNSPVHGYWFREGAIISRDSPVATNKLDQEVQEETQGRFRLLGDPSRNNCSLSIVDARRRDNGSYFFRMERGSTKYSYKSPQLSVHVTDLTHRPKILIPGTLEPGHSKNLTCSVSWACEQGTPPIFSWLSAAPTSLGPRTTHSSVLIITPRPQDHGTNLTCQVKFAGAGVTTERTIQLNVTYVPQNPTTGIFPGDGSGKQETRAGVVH
- experiment description: SPR (Biacore T200), 37 C; KD at 10 uM MTX / KD at 0 uM MTX
Below, each entry is listed alongside its reported Ratio: KD with MTX / KD without MTX.

Query string: Return reported Ratio: KD with MTX / KD without MTX; argument: P01_F05 scFv-Fc fusion (scFv, V domains shown, Tested as scFv-Fc fusion) VH: QVQLVESGGGLVQAGGSLRLSCAASRRSSRSWAMHWVRQAPGKGLEWVAVISYDGRLKYYADSVKGRFTISRDNAEYLVYLQMNSLRAEDTAVYYCAAGPDRWAGYDAFDVWGQGTLVTVSS VL: DIQMTQSPSSLSASVGDRVTITCRASQTINTHLNWYQQKPGKAPKLLIYGASNLQGGVPSRFSGSGSGTDFTLTISSLQPEDFATYYCQQSYSTPLTFGQGTKVEIK
Result string: > 92.5

Query string: One more binder: P03_H04 scFv-Fc fusion (scFv, V domains shown, Tested as scFv-Fc fusion) VH: QVQLVESGGGLVQAGGSLRLSCAASRRSSRSWAMHWVRQAPGKGLEWVAVISYDGRLKYYADSVKGRFTISRDNAEYLVYLQMNSLRAEDTAVYYCAADPHDGYGGGPGFDYWGQGTLVTVSS VL: QSVLTQPPSASGTPGQRVTISCSGSSSNIGSNYVYWYQQLPGTAPKLLIYRSNQRPSGVPDRFSGSKSGTSASLAISGLRSEDEADYYCAAWDDTLSAVVFGTGTKLTVL
Result string: > 43

Query string: One more binder: P02_D09 scFv-Fc fusion (scFv, V domains shown, Tested as scFv-Fc fusion) VH: QVQLVESGGGLVQAGGSLRLSCAASRRSSRSWAMHWVRQAPGKGLEWVAVISYDGRLKYYADSVKGRFTISRDNAEYLVYLQMNSLRAEDTAVYYCAAEEGDGGFFDYWGQGTLVTVSS VL: QSVLTQPPSASGTPGQRVTISCSGSSSNIGSNYVNWYQQLPGTAPKLLIYRNNERPSGVPDRFSGSKSGTSASLAISGLRSEDEADYYCAAWDGSLSGRGVFGTGTKLTVL
Result string: > 20.4

Every entry's value here was drawn from patent US20230192839A1.
